Entries annotated with measured GI50
Test system: NCI-H522
ASSAY OVERVIEW: NCI tumour cell line growth inhibition, 48 h
Active and inactive are the calls of the source. Rule as the data show it: active = GI50 up to about 1.1 µM and inactive = higher.

Recorded results for 5 compounds are shown here.
[[record]]
compound = "CC(=O)C1=CSC2[C@H](NC(=O)Cc3ccccc3)C(=O)N2C1C(=O)OC(c1ccccc1)c1ccccc1 (stereo not given in full)"
assay_value = "> 100 µM (inactive)"

[[record]]
compound = "Nc1ccc2c(c1)Oc1c(F)c(F)cc3c(=O)c(C(=O)O)cn-2c13"
assay_value = "29.9 µM (inactive)"

[[record]]
compound = "Cc1ccc(C(=C2Sc3ccccc3S2)C(=C2Sc3ccccc3S2)c2ccc(C)s2)s1"
assay_value = "> 100 µM (inactive)"

[[record]]
compound = "NC(Cc1ccc(O)cn1)C(=O)NC(C(=O)O)c1ccccc1 (stereo not given)"
assay_value = "> 100 µM (inactive)"

[[record]]
compound = "CC1=C(C(=O)NCc2ccccc2)C(c2ccccc2C)C(C(=O)NCc2ccccc2)=C(C)N1"
assay_value = "28.4 µM (inactive)"


Retrieve GI50 on NCI-H522; query O=C1NC(=S)N/C1=C/c1c(-c2ccccc2)[nH]c2ccccc12
13.2 µM (inactive)

# assay system NCI-H522: give GI50 of Cc1ccc(C2=C(c3ccccc3)C(=O)C(c3ccccc3)=C2c2ccc(C)cc2)cc1
72.9 µM (inactive)

Provide the reported GI50 (system: NCI-H522) for COc1ccc(C(C)NNC(=O)c2ccncc2)c(OC)c1 (stereo not given)
> 100 µM (inactive)

Recall the reported GI50 of CC1OC(O[C@H]2CC[C@]3(C)[C@H]4CC=C5[C@@H]6[C@@H](C)[C@H](C)CC[C@]6(C(=O)OC6OC(CO)C(O)C(O)C6O)CC[C@@]5(C(=O)O)[C@]4(C)CC[C@H]3C2(C)C)C(O)C(O)C1O (stereo not given in full) on NCI-H522 and write it down.
> 100 µM (inactive)

Enter GI50 (test system NCI-H522) for O=C1N/C(=N/N=C/c2cccs2)N/C1=C\c1ccco1
7.98 µM (inactive)

###

Test system: MOLT-4
ASSAY OVERVIEW: NCI tumour cell line growth inhibition, 48 h
The source made the active and inactive calls. Cut-off read from the data, not from the text of the source: active = GI50 up to about 1.1 µM and inactive = higher.
Your reply should match one of these outcome classes. Yes for active, No for inactive

Here are 5 molecules together with their reported answers.
[[record]]
molecule = "CCCCCCCCCCCCCCCCCC(=O)NCCCNCCCNC(=O)CCCCCCCCCCCCCCCCC"
tested_target = "MOLT-4"
group_label = "No"

[[record]]
molecule = "CC(=O)O[C@H]1C(=O)[C@@]2(C)[C@H]([C@H](OC(=O)c3ccccc3)[C@]3(O)C[C@H](OC(=O)[C@H](O)[C@@H](NC(=O)c4ccccc4)c4ccc5ccccc5c4)C(C)=C1C3(C)C)[C@]1(OC(C)=O)CO[C@@H]1C[C@@H]2O"
tested_target = "MOLT-4"
group_label = "Yes"

[[record]]
molecule = "CC(=O)OCC1OC(O[C@@H]2C[C@H]3C(C)(C)[C@H](OC(C)=O)CC[C@]3(C)[C@H]3CC[C@@]45C[C@H](O)C[C@H](C)[C@@H]4CC=C5[C@@]32C)C(O)C(O)C1O (some centres not stated)"
tested_target = "MOLT-4"
group_label = "No"

[[record]]
molecule = "CC(C)=CC(=O)OC1C2C(C)=CC(O)C(O)C2(C)C2C3(O)OCC24C(CC(=O)OC14)C(C)C3O (configuration not stated)"
tested_target = "MOLT-4"
group_label = "Yes"

[[record]]
molecule = "Cc1cc2c(cc1Cl)SC(NS(=O)(=O)c1ccc(Cl)cc1)=NS2(=O)=O"
tested_target = "MOLT-4"
group_label = "No"


Answer briefly: the call reported for Cc1ccc2cccc3c2c1CC1(C3=O)S(=O)(=O)OCCOS1(=O)=O in this assay.
No

Dear colleague, could you share the recorded outcome for C[S+]([O-])c1ccc(COP(N)(=O)N(CCCl)CCCl)cc1 (configuration not stated) when you have a moment?
No
